- Method: Human HepG2 cell viability assay in 384 well format
- Format: toxicity, cell-based
- Design: dose 125 nL, time 70.5 hour; concentration not given beside the values
- Condition Summary: HepG2 cells, read-out: Inhibition
Item-by-item account of cytotoxicity at 70.5 h
Observation Type: cytotoxicity at 70.5 h (%)

Molecule: O=C(O)[C@@H]1CN(C(=O)c2ccc(O)cc2)C[C@H]1c1cccc(F)c1
Observation Type: cytotoxicity at 70.5 h
Experimental Value: 14.4
--
Molecule: COC(=O)CC(NC(=O)CCCn1cccn1)c1ccc(Cl)cc1 (configuration not stated)
Observation Type: cytotoxicity at 70.5 h
Experimental Value: -14.1
--
Molecule: CCS(=O)(=O)CC(=O)NCC1(c2c(F)cccc2F)CCCC1
Observation Type: cytotoxicity at 70.5 h
Experimental Value: 18
--
Molecule: c1coc(-c2nnc(CN3CCOC(Cn4cccn4)C3)o2)c1 (configuration not stated)
Observation Type: cytotoxicity at 70.5 h
Experimental Value: 6.43
--
Molecule: CC1CN(C)CCN1CC(=O)NCCOc1ccc(Cl)cc1 (configuration not stated)
Observation Type: cytotoxicity at 70.5 h
Experimental Value: 11.2
--
Molecule: Nc1cc(-c2cc[nH]n2)nc(N2CCCC2)n1
Observation Type: cytotoxicity at 70.5 h
Experimental Value: 5.5
--
Molecule: CS(=O)(=O)N[C@@H]1CN(C(=O)c2cc3ccccc3s2)C[C@H]1O
Observation Type: cytotoxicity at 70.5 h
Experimental Value: 19
--
Molecule: Cc1noc(C)c1CN1C[C@@H]2C[C@H](C(=O)NCC3CC3)N(C)[C@@H]2C1
Observation Type: cytotoxicity at 70.5 h
Experimental Value: -11.9
--
Molecule: CC(C)(NCC(=O)N1CCCC(C(N)=O)C1)c1ccc(Cl)cc1 (configuration not stated)
Observation Type: cytotoxicity at 70.5 h
Experimental Value: -3.83
--
Molecule: O=C(NCC(F)(F)F)C1CSCN1S(=O)(=O)c1cccc(F)c1 (configuration not stated)
Observation Type: cytotoxicity at 70.5 h
Experimental Value: -12
--
Molecule: Cc1noc(C)c1CN1CC2(CCN(C(=O)c3cc[nH]n3)C2)CC1=O (configuration not stated)
Observation Type: cytotoxicity at 70.5 h
Experimental Value: -6.88
--
Molecule: Fc1ccc(CN2CC[C@H]3O[C@@H](COCC4CCOCC4)CC[C@H]32)cc1
Observation Type: cytotoxicity at 70.5 h
Experimental Value: 18.1
--
Molecule: O=C(O)CN1CCC(c2ccccc2)CC1
Observation Type: cytotoxicity at 70.5 h
Experimental Value: -3.19
--
Molecule: O=C(O)C1CCN(C(=O)CCn2ccc3cc(Br)ccc32)CC1
Observation Type: cytotoxicity at 70.5 h
Experimental Value: -15.9
--
Molecule: O=c1cc(Cn2cncn2)nc2n1CCCN(CCN1CCCC1)C2
Observation Type: cytotoxicity at 70.5 h
Experimental Value: -9.08
--
Molecule: Cn1cnnc1C1CCN(C(=O)c2cc3c(s2)CCCC3)CC1
Observation Type: cytotoxicity at 70.5 h
Experimental Value: 14.6
--
Molecule: Cc1cc(S(=O)(=O)Nc2cccc(I)c2)sc1C(=O)O
Observation Type: cytotoxicity at 70.5 h
Experimental Value: 13.9
--
Molecule: COCCCNC(=O)c1c(C)noc1C(C)C
Observation Type: cytotoxicity at 70.5 h
Experimental Value: -11.8
--
Molecule: O=C1CN(C(=O)CN(CC2CCC2)CC(F)(F)F)CCN1
Observation Type: cytotoxicity at 70.5 h
Experimental Value: -9.35
--
Molecule: CCc1nc(C2CCCN(C(=O)c3ccncc3)C2)no1 (configuration not stated)
Observation Type: cytotoxicity at 70.5 h
Experimental Value: -1.21
--
Molecule: Cc1ccsc1C(=O)N1CCn2cnc(COCC3CC3)c2C1
Observation Type: cytotoxicity at 70.5 h
Experimental Value: -4.7
--
Molecule: O=C(Cc1ccncc1)N1C[C@H]2CC[C@@H]1CN(Cc1cccnc1)C2
Observation Type: cytotoxicity at 70.5 h
Experimental Value: 8.28
--
Molecule: COc1cc(C2CC(=O)Nc3c2c(=O)[nH]n3C2CCCC2)ccc1O (configuration not stated)
Observation Type: cytotoxicity at 70.5 h
Experimental Value: -2.72
--
Molecule: CCCc1noc(CNc2ccc(C(=O)N3CCCC3)cc2C)n1
Observation Type: cytotoxicity at 70.5 h
Experimental Value: -0.0635
--
Molecule: CC(C)CCN1N=C(C(=O)N2CCCCCC2)S(=O)(=O)c2ccccc21
Observation Type: cytotoxicity at 70.5 h
Experimental Value: 21.7
--
Molecule: Cc1nc(CN2CCC(c3cc(N4CCCC4)ncn3)CC2)cs1
Observation Type: cytotoxicity at 70.5 h
Experimental Value: 4.68
--
Molecule: Cc1ccc(CNc2nc(O)cc(C3CC(=O)N(C)C3)n2)cc1 (configuration not stated)
Observation Type: cytotoxicity at 70.5 h
Experimental Value: -4.28
--
Molecule: Cn1c2c(ccc1=O)CC(NC(=O)c1ccsc1)CC2 (configuration not stated)
Observation Type: cytotoxicity at 70.5 h
Experimental Value: -2.29
--
Molecule: COc1ccccc1CNc1cnn(CC(F)F)c1
Observation Type: cytotoxicity at 70.5 h
Experimental Value: 1.56
--
Molecule: CS(=O)(=O)NC1CCN(C(=O)c2cnc(-c3cccnc3)nc2)CC1
Observation Type: cytotoxicity at 70.5 h
Experimental Value: -7.35
--
Molecule: COCCN1CCCC12CCCN(c1ncccn1)C2 (configuration not stated)
Observation Type: cytotoxicity at 70.5 h
Experimental Value: -2.34
--
Molecule: O=C(NC1CCCC1)O[C@H]1COCCN(c2nc3ccccc3o2)C1
Observation Type: cytotoxicity at 70.5 h
Experimental Value: -3.6
--
Molecule: OCCN1CC2(CCN(CC3CC3)CC2)c2ccccc21
Observation Type: cytotoxicity at 70.5 h
Experimental Value: 4.7
--
Molecule: Cc1c(Br)cccc1CNC1(CCO)CCOCC1
Observation Type: cytotoxicity at 70.5 h
Experimental Value: -1.58
--
Molecule: CC(=O)N1CCO[C@H]2[C@H](OCCCn3cccn3)CC[C@@H]21
Observation Type: cytotoxicity at 70.5 h
Experimental Value: -3.12
--
Molecule: COc1ccc(OC)c(NC(=O)CSc2ccc3nncn3n2)c1
Observation Type: cytotoxicity at 70.5 h
Experimental Value: -8.56
--
Molecule: CN(CCc1ccccn1)C(=O)c1cnn(-c2ccccc2F)c1N
Observation Type: cytotoxicity at 70.5 h
Experimental Value: 7.25
--
Molecule: O=C(NCC1CC1)[C@@H]1CC[C@@H]2[C@@H](CCN2Cc2ccco2)O1
Observation Type: cytotoxicity at 70.5 h
Experimental Value: 1.26
--
Molecule: CN(C(=O)NCc1ccsc1)C1CCN(c2ccccc2)C1=O (configuration not stated)
Observation Type: cytotoxicity at 70.5 h
Experimental Value: 0.0689
--
Molecule: COCc1nc(C(=O)N2CCCC(n3ccnc3)C2)cs1 (configuration not stated)
Observation Type: cytotoxicity at 70.5 h
Experimental Value: -10
--
Molecule: Cc1nn(C)cc1-c1ccnc(N(C)Cc2noc(C(C)C)n2)n1
Observation Type: cytotoxicity at 70.5 h
Experimental Value: -2.05
--
Molecule: CC(NC(=O)N1CCNC(=O)CC1)c1c(F)cccc1Cl (configuration not stated)
Observation Type: cytotoxicity at 70.5 h
Experimental Value: -4.44
--
Molecule: CCOC(=O)C1CCN(C(=O)c2cnn(-c3ccc(C)cc3)c2N)CC1
Observation Type: cytotoxicity at 70.5 h
Experimental Value: -5.44
--
Molecule: NC1CCCCN(Cc2cc(C3CCCCC3)no2)C1 (configuration not stated)
Observation Type: cytotoxicity at 70.5 h
Experimental Value: -7.91
--
Molecule: Cc1[nH]ncc1CCCNC(=O)Nc1ccccc1
Observation Type: cytotoxicity at 70.5 h
Experimental Value: 14.5
--
Molecule: N#Cc1cccnc1NCCc1cc(F)cc2c1OCOC2
Observation Type: cytotoxicity at 70.5 h
Experimental Value: 24
--
Molecule: COc1ccc(CCN(C)C(C(=O)O)c2ccc(F)c(C)c2)cc1OC (configuration not stated)
Observation Type: cytotoxicity at 70.5 h
Experimental Value: 9.05

The reported measurements were obtained from ChEMBL document CHEMBL3507680.
